Source of measurements: ChEMBL document CHEMBL5625204

ASSAY PROTOCOL: Selectivity index, ratio of CC50 for dog MDCK cells to EC50 for antiviral activity against Influenza A virus H1N1 (A/Weiss/43) infected in MDCK cells treated for 72 hrs after viral adsorption
Type: toxicity, cell-based
SETTINGS: read-out: Ratio CC50/EC50
MEASURED ENDPOINT: selectivity ratio at 72 h

SMILES RECORD: CCOC(=O)C1=C[C@@H](OC(CC)CC)[C@H](NC(C)=O)[C@@H](N)C1
RESULT: > 471
--
SMILES RECORD: Cc1ccc(S(=O)(=O)N(Cc2ccccc2)c2cc3ccccc3c3ccc(C)cc23)cc1
RESULT: > 22
--
SMILES RECORD: O=S(=O)(c1ccc(Cl)cc1)N(Cc1ccccc1)c1cc2ccccc2c2ccccc12
RESULT: > 26.7
--
SMILES RECORD: O=[N+]([O-])c1ccc(S(=O)(=O)N(Cc2ccccc2)c2cccc3ccccc23)cc1
RESULT: > 351
--
SMILES RECORD: COc1ccc2c(c1)c(N(Cc1ccccc1)S(=O)(=O)c1ccc(C)cc1)cc1ccccc12
RESULT: > 36.8
--
SMILES RECORD: COc1ccc2c(c1)c(NS(=O)(=O)c1ccc(C)cc1)cc1ccccc12
RESULT: > 11.5
